Assay Info: activity coefficient (dimensionless); of the first substance listed, at infinite dilution; xn = mol fraction of the nth substance listed
Measurement Setup: 348.15 K; 101 kPa; Liquid; Chromatography; x1 = 0
The label true is reserved for activity coefficient strictly under 2; false covers values equal to or above it.

| Compound | Label Value |
| --- | --- |
| C1CCCC1 [cyclopentane] + CCCC[n+]1ccc(C)cc1.O=S(=O)([N-]S(=O)(=O)C(F)(F)F)C(F)(F)F | false |
| CO [methanol] + CCCC[n+]1ccc(C)cc1.O=S(=O)([N-]S(=O)(=O)C(F)(F)F)C(F)(F)F | true |
| C#CCCCC [1-hexyne] + CCCC[n+]1ccc(C)cc1.O=S(=O)([N-]S(=O)(=O)C(F)(F)F)C(F)(F)F | false |
| C1CCCCC1 [cyclohexane] + CCCC[n+]1ccc(C)cc1.O=S(=O)([N-]S(=O)(=O)C(F)(F)F)C(F)(F)F | false |
| CCCCCCC [heptane] + CCCC[n+]1ccc(C)cc1.O=S(=O)([N-]S(=O)(=O)C(F)(F)F)C(F)(F)F | false |
| CCCO [propan-1-ol] + CCCC[n+]1ccc(C)cc1.O=S(=O)([N-]S(=O)(=O)C(F)(F)F)C(F)(F)F | true |
| C#CCCCCCC [1-octyne] + CCCC[n+]1ccc(C)cc1.O=S(=O)([N-]S(=O)(=O)C(F)(F)F)C(F)(F)F | false |
